Entry source: ChEMBL document CHEMBL5247575

Give MIC for every item shown.
- Test system: Acinetobacter baumannii
- method description: Synergistic antibacterial activity against ADC deleted Acinetobacter baumannii assessed as meropenem MIC at 4 ug/ml by broth microdilution method
- Assay type: functional
- experimental setup: dose 4 µg/ml

Q: // lookup MIC for O=C(NNC(=O)[C@@H]1CC[C@@H]2CN1C(=O)N2OS(=O)(=O)O)[C@@H]1CCCNC1 [ZIDEBACTAM]
Ans: ≤ 0.12 µg/mL

Q: Likewise for O=C(NNC(=O)[C@@H]1CC[C@@H]2CN1C(=O)N2OS(=O)(=O)O)[C@@H]1CCNC1 ?
Ans: > 16 µg/mL

Q: Do the same for O.O=C(NC1CCNCC1)[C@@H]1CC[C@@H]2CN1C(=O)N2OS(=O)(=O)O [RELEBACTAM] please
Ans: ≤ 0.12 µg/mL

Q: Try N#C[C@@H]1CC[C@@H]2CN1C(=O)N2OS(=O)(=O)[O-].[Na+] next.
Ans: ≤ 0.12 µg/mL

Q: Same for NC(=O)[C@@H]1CC[C@@H]2CN1C(=O)N2OS(=O)(=O)[O-].[Na+] [AVIBACTAM SODIUM]
Ans: ≤ 0.12 µg/mL
